# system-under-test: human recombinant cathepsin K (Homo sapiens, UniProt P43235)
# Sequence (P43235 115-329): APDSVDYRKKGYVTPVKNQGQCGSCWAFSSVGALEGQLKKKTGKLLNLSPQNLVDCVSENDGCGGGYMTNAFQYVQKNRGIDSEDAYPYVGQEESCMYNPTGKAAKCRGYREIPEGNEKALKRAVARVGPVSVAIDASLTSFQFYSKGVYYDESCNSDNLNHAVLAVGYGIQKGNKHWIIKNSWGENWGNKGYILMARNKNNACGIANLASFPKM
# assay-text: Determination of cathepsin K proteolytic catalytic activity (Ki)
# experimental-parameters: fluorogenic substrate H-D-Ala-Leu-Lys-AMC; read-out: Ki Cat. K
assay-endpoint: Ki (nM)
Value expressed in nM; do not type the unit.

Solved entries:
CC1(C[C@H](NC(=O)C(C)(C)C(F)(F)F)C(=O)NC2(C(=O)C(N)=O)CCC2)CCCC1
300
NC(=O)C(=O)C1(NC(=O)[C@H](CC2(F)CCCC2)NC(=O)c2ccccn2)CCC1
180
CCC(=O)N[C@@H](CC1(C)CCCC1)C(=O)NC1(C(=O)C(N)=O)CCC1
2300

System human recombinant cathepsin K (Homo sapiens, UniProt P43235). Read-out Ki. Item CC1(C[C@H](NC(=O)OC(C)(C)C)C(=O)NC2(C(=O)C(N)=O)CC2)CCCC1 . Report value.
1900

System human recombinant cathepsin K (Homo sapiens, UniProt P43235). Read-out Ki. Item CC(C)(C)C[C@H](NC(=O)OC(C)(C)C)C(=O)N[C@]1(C(=O)C(N)=O)C[C@@H](F)C1 . Report value.
770
